Origin of values: patent US8653043B2

- System: human cancer cell lines
- assay.summary: Cytotoxicity assay (calcein AM / CellTiter-Glo) in carcinoma cell lines
- Format: cell-based
- measurement.conditions: in one or more cell lines; comparison with betulinic acid (1)

molecule | cytotoxic potency compared to parent 1
C=C(C)[C@@H]1CC[C@]2(C(=O)O)CC[C@]3(C)[C@H](CC[C@@H]4[C@@]5(C)CC[C@H](OC(=O)CN(OC)C6O[C@@H](C)[C@@H](O)[C@@H](O)[C@@H]6O)C(C)(C)[C@@H]5CC[C@]43C)[C@@H]12 (some centres unmarked) | equipotent
C=C(C)[C@@H]1CC[C@]2(C(=O)O)CC[C@]3(C)[C@H](CC[C@@H]4[C@@]5(C)CC[C@H](OC(=O)CN(OC)[C@@H]6O[C@H](CO)[C@@H](O)[C@@H](O)[C@H]6O)C(C)(C)[C@@H]5CC[C@]43C)[C@@H]12 | equipotent
C=C(C)[C@@H]1CC[C@]2(C(=O)O)CC[C@]3(C)C(CCC4[C@@]5(C)CC[C@H](OC(=O)CN(OC)[C@H]6OC[C@H](O)[C@@H](O)[C@@H]6O)C(C)(C)C5CC[C@]43C)C12 (some centres unmarked) | equipotent

====

- Test system: human cancer cell lines
- assay.summary: Cytotoxicity assay (calcein AM / CellTiter-Glo) in carcinoma cell lines
- Type: cell-based
- measurement.conditions: ester-linked BA series; 72 h incubation; cell line not specified / at least one cell line
pIC50: −log10 of the molar value.
readout.type: pIC50

Incoming: Return pIC50 (reported value) for this compound: C=C(C)[C@@H]1CC[C@]2(C(=O)O)CC[C@]3(C)C(CCC4[C@@]5(C)CC[C@H](OC(=O)CN(OC)C6O[C@@H](C)[C@H](O)[C@@H](O)[C@H]6O)C(C)(C)C5CC[C@]43C)C12 (stereo partly shown)
Outgoing: ≤ 4.60
